These measurements were taken from patent US20250340557A1.

# system-name: human mPGES-1 (Homo sapiens)
# Construct: made in house; host or cells: COS-1 cells (transient transfection; microsomal fraction used as enzyme)
# experimental-details: Test for mPGES-1 inhibitory activity (microsomal enzyme, PGE2 EIA)
# Type: biochemical
# condition-description: microsomes from COS-1 cells transfected with human mPGES-1 cDNA; substrate PGH2 1 μM; 4° C., 4 minutes; PGE2 measured by EIA; read-out: h mPGES1 IC50
# key: entry, value: IC50
property-measured: IC50

{"molecule": "Cc1nc(-c2c(C(F)(F)F)ccc(CNC(=O)[C@H]3CC[C@H](OCc4cccc(Cl)c4)CC3)c2F)[nH]c(=O)c1F [Example 123]", "system-name": "human mPGES-1 (Homo sapiens)", "recorded-result": "< 1 nM"}
{"molecule": "Cc1nc(-c2c(C(F)(F)F)ccc(CNC(=O)[C@H]3CC[C@H](OCc4ccc(Cl)cc4)CC3)c2F)[nH]c(=O)c1F [Example 104]", "system-name": "human mPGES-1 (Homo sapiens)", "recorded-result": "1.2 nM"}
{"molecule": "O=C(NCc1ccc(C(F)(F)F)c(-c2nc(C(F)(F)F)cc(=O)[nH]2)c1F)C1CCN(c2ccc3ccccc3n2)CC1 [Example 5]", "system-name": "human mPGES-1 (Homo sapiens)", "recorded-result": "< 10 nM"}
{"molecule": "O=C(NCc1ccc(C(F)(F)F)c(-c2nc(C(F)(F)F)cc(=O)[nH]2)c1F)C1CCN(c2ccc3nccn3n2)CC1 [Example 1]", "system-name": "human mPGES-1 (Homo sapiens)", "recorded-result": "37 nM"}
{"molecule": "Cc1nc(-c2c(C(F)(F)F)ccc(CNC(=O)C3CCN(c4ccc(C(F)(F)F)cn4)CC3)c2F)[nH]c(=O)c1C [Example 35]", "system-name": "human mPGES-1 (Homo sapiens)", "recorded-result": "11 nM"}
{"molecule": "Cc1nc(-c2c(C(F)(F)F)ccc(CNC(=O)C3CCN(c4ccc(OC(F)(F)F)cc4)CC3)c2F)[nH]c(=O)c1F [Example 72]", "system-name": "human mPGES-1 (Homo sapiens)", "recorded-result": "< 1 nM"}
{"molecule": "O=C(NCc1ccc(C(F)(F)F)c(-c2nc(C(F)(F)F)cc(=O)[nH]2)c1F)C1CCN(c2ccc(Cl)cc2)CC1 [Example 64]", "system-name": "human mPGES-1 (Homo sapiens)", "recorded-result": "< 1 nM"}

###

# system-name: human mPGES-1 (Homo sapiens, UniProt O14684)
# Construct: made in house; host or cells: COS-1 cells (transient transfection; microsomal fraction used as enzyme)
# Sequence (O14684 1-152): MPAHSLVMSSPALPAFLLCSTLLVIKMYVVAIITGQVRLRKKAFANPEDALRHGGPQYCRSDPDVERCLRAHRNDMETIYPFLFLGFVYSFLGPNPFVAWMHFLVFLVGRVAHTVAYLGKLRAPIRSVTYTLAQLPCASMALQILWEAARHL
# experimental-details: Test for mPGES-1 inhibitory activity (microsomal enzyme, PGE2 EIA)
# Assay type: biochemical
# condition-description: microsomes of COS-1 cells transfected with human mPGES-1 cDNA; PGH2 1 μM; 4° C., 4 minutes; PGE2 by EIA; read-out: h mPGES1 IC50

{"record-smiles": "Cc1cc(=O)[nH]c(-c2c(C(F)(F)F)ccc(CNC(=O)[C@H]3C[C@H](OCc4cc(F)cc(F)c4)C3)c2F)n1", "system-name": "human mPGES-1 (Homo sapiens, UniProt O14684)", "relation": "=", "IC50, nM": 6.4}
{"record-smiles": "O=c1cc(C(F)(F)F)nc(-c2c(C(F)(F)F)ccc(CNC(=O)[C@H]3CC[C@H](c4ccc(Cl)cc4)CC3)c2F)[nH]1", "system-name": "human mPGES-1 (Homo sapiens, UniProt O14684)", "relation": "<", "IC50, nM": 1}
{"record-smiles": "O=c1[nH]c(-c2c(C(F)(F)F)ccc(CNC(=O)[C@H]3C[C@H](OCc4cccc(Cl)c4)C3)c2F)nc2c1CCC2", "system-name": "human mPGES-1 (Homo sapiens, UniProt O14684)", "relation": "<", "IC50, nM": 1}
{"record-smiles": "O=C(NCc1ccc(C(F)(F)F)c(-c2nc(C(F)(F)F)cc(=O)[nH]2)c1F)C1(c2ccc(Cl)cc2)CCCC1", "system-name": "human mPGES-1 (Homo sapiens, UniProt O14684)", "relation": "=", "IC50, nM": 45}
{"record-smiles": "CCc1cc(=O)[nH]c(-c2c(C(F)(F)F)ccc(CNC(=O)[C@H]3C[C@H](OCc4ccc(C(F)(F)F)cc4)C3)c2F)n1", "system-name": "human mPGES-1 (Homo sapiens, UniProt O14684)", "relation": "=", "IC50, nM": 6.5}
{"record-smiles": "Cc1nc(-c2c(C(F)(F)F)ccc(CNC(=O)[C@H]3C[C@H](OCc4ccc(F)c(Cl)c4)C3)c2F)[nH]c(=O)c1F", "system-name": "human mPGES-1 (Homo sapiens, UniProt O14684)", "relation": "<", "IC50, nM": 1}
{"record-smiles": "O=c1cc(-c2ccc(C(F)(F)F)cn2)nc(-c2c(C(F)(F)F)ccc(CNS(=O)(=O)c3ccccc3C(F)(F)F)c2F)[nH]1", "system-name": "human mPGES-1 (Homo sapiens, UniProt O14684)", "relation": "=", "IC50, nM": 7.6}
{"record-smiles": "O=c1cc(C(F)(F)F)nc(-c2c(C(F)(F)F)ccc(CNC(=O)[C@H]3C[C@H](Oc4ccc(Cl)cc4)C3)c2F)[nH]1", "system-name": "human mPGES-1 (Homo sapiens, UniProt O14684)", "relation": "=", "IC50, nM": 2.8}
{"record-smiles": "O=c1cc(C(F)F)nc(-c2c(C(F)(F)F)ccc(CNC(=O)[C@H]3C[C@H](OCc4cccc(Cl)c4)C3)c2F)[nH]1", "system-name": "human mPGES-1 (Homo sapiens, UniProt O14684)", "relation": "<", "IC50, nM": 1}
{"record-smiles": "Cc1nc(-c2c(C(F)(F)F)ccc(CNC(=O)[C@H]3C[C@H](OCc4cc(Cl)ccc4F)C3)c2F)[nH]c(=O)c1F", "system-name": "human mPGES-1 (Homo sapiens, UniProt O14684)", "relation": "<", "IC50, nM": 1}
{"record-smiles": "O=C(NCc1ccc(C(F)(F)F)c(-c2nc(C(F)(F)F)cc(=O)[nH]2)c1F)C1CCN(CCc2ccccc2)CC1", "system-name": "human mPGES-1 (Homo sapiens, UniProt O14684)", "relation": "=", "IC50, nM": 35}
{"record-smiles": "O=c1cc(C(F)(F)F)nc(-c2c(C(F)(F)F)ccc(CNC(=O)[C@H]3C[C@H](Oc4cccc(Cl)c4)C3)c2F)[nH]1", "system-name": "human mPGES-1 (Homo sapiens, UniProt O14684)", "relation": "=", "IC50, nM": 1}
{"record-smiles": "CCc1nc(-c2c(C(F)(F)F)ccc(CNC(=O)[C@H]3C[C@H](OCc4cc(F)cc(Cl)c4)C3)c2F)[nH]c(=O)c1F", "system-name": "human mPGES-1 (Homo sapiens, UniProt O14684)", "relation": "<", "IC50, nM": 1}
